target: α2 I-domain (Homo sapiens); construct: corresponded to amino acids 124-339 of the whole α2 integrin; made in house; host or cells: E. coli BL21 (pGEX-2T); test: Solid-phase binding assay, α2 I-domain binding to type I collagen; conditions: FIG. 6B, 7A, 8A
REPORTED_ENDPOINT: inhibition of α2 I-domain binding to type I collagen (in words)

SMILES_NOTATION	TEST_VALUE
CCc1cc(O)c2c(O)c3c(c(O)c2c1C(=O)OC)C(=O)c1cccc(O)c1C3=O	could inhibit
COC(=O)c1c(C(C)C)cc(O)c2c(O)c3c(c(O)c12)C(=O)c1cccc(O)c1C3=O	could inhibit
CCc1cc(O)c2c(O)c3c(cc2c1C(=O)OC)C(=O)c1cccc(O)c1C3=O	could inhibit

* * *

Target: CHO cells expressing α2β1 integrin (Homo sapiens, UniProt P05556+P17301)
Sequence (P17301 1-1181): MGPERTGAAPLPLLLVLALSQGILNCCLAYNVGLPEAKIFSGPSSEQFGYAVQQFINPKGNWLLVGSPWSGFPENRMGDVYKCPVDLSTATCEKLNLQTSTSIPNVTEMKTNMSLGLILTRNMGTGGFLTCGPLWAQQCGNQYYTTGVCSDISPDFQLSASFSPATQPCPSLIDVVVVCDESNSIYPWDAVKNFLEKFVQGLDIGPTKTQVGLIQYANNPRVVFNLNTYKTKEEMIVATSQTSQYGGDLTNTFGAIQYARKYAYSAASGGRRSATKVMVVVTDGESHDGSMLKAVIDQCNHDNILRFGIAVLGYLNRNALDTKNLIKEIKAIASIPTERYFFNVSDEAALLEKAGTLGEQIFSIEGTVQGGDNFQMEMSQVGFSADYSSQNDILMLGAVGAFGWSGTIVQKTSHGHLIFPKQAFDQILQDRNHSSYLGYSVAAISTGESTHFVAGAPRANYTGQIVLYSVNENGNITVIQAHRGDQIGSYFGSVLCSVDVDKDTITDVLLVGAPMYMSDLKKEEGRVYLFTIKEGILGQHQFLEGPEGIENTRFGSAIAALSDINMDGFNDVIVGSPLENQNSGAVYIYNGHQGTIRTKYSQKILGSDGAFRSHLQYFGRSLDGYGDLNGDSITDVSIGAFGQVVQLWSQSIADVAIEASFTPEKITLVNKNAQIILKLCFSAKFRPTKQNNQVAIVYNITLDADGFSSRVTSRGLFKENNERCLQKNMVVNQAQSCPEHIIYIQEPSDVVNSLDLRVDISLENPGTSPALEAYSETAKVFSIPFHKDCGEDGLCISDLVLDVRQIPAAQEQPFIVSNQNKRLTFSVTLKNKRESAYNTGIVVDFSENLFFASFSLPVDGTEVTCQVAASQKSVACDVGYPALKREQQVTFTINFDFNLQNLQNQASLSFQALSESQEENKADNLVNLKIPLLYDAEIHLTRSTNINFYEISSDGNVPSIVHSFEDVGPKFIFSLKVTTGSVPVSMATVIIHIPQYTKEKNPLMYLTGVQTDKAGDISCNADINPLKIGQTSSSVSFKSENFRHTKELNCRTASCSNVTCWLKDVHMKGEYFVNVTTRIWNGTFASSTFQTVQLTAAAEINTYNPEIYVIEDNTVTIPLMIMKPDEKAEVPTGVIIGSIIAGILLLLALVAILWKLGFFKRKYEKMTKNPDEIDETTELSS
Assay: Cell adhesion assay, CHO-α2 cells on collagen type I
Type: cell-based, Chinese Hamster
Details: CHO-α2 cells, collagen type I; read-out: EC50, adhesion
Binning of EC50 into classes: low band: < 10 µM; middle band: ≥ 10 µM and < 30 µM; high band: ≥ 30 µM

Known results for compounds:
> print(dat)
                                   compound  classification
1  CN(c1ccc(NC(=O)N2CCNC2=O)cc1)S(=O)(=O)c1cccc(-c2ccc(F)cc2)c1     middle band
2  O=[N+]([O-])c1ccc(NS(=O)(=O)c2cccc(-c3ccc(F)cc3)c2)cc1        low band
3  O=C(c1ccccc1)c1ccc([N-]S(=O)(=O)c2cccc(-c3ccc(F)cc3)c2)cc1.[Na+]        low band
4  O=S(=O)(Nc1cccc(-c2ccc(F)cc2)c1)c1ccc(Cl)cc1     middle band
5  O=C(c1ccccc1)c1ccc(NS(=O)(=O)c2cccc(-c3ccc(F)cc3)c2)cc1     middle band
6  N#Cc1ccc(NS(=O)(=O)c2cccc(-c3ccc(F)cc3)c2)cc1       high band
7  CN(C)CCN(c1ccc(N(C)C)cc1)S(=O)(=O)c1cccc(-c2ccc(F)cc2)c1     middle band
8  CC(=O)c1ccc(NS(=O)(=O)c2cccc(-c3ccc(F)cc3)c2)cc1       high band

Task item: Which bin, given its EC50, does O=S(=O)(Nc1ccc(C(O)c2ccccc2)cc1)c1cccc(-c2ccc(F)cc2)c1 (stereo not shown) occupy?
Reply: low band
